Measured values drawn from the supplement of paper PMC7877785 for this set.

// reported self-splicing fitness (ln) per item
assay.explanation: self-splicing fitness, log relative to wild type (ln ratio); higher = more splicing; Tetrahymena group I intron in knt gene, E. coli kanamycin selection, DiMSum; sequences stand for … in CUCUCU…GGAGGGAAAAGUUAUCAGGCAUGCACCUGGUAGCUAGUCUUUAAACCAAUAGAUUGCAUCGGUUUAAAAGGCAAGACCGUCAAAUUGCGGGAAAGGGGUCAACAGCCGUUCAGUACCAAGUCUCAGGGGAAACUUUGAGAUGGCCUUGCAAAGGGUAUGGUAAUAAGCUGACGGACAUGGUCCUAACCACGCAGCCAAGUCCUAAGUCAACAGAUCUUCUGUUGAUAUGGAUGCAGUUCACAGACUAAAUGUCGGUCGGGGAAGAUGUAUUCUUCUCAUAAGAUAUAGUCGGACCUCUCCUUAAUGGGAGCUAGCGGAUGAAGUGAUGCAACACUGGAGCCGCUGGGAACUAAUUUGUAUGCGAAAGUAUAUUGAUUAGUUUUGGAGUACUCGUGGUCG;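 further: selection with 25 µg/mL kanamycin versus none on LB agar overnight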
measurement.setup: 37 °C
observable: self-splicing fitness (ln)

CUUGAGCAAUAUUACGUUUA: -2.88
CAGUAGCAAUAUUACGCAAG: -0.553
CGCAAGCAAUAUUACGGGUG: -0.366
AAUCAGCAAUAUUACGUCUG: -0.895
UCCUAGCAAUAUUACGAUGA: 0.437
UGACAGCAAUAUUACGGAAU: -1.55
CGGCAGCAAUAUUACGGAAA: -2.7
ACCUAGCAAUAUUACGAGUU: -1.24
GGUCAGCAAUAUUACGAUAG: 0.0315
GGGUAGCAAUAUUACGAGGA: -2.74
GCAGAGCAAUAUUACGCAUU: -2.3
GCCUAGCAAUAUUACGAUUG: -2.32
GCAUAGCAAUAUUACGAUGU: -2.31
